These entries and their values trace back to ChEMBL document CHEMBL4251743.

Each entry below carries its reported Ki.
# target.or.test.system: Neuronal acetylcholine receptor; alpha4/beta2 (Rattus norvegicus, UniProt P09483+P12390)
# Sequence (P09483 whole entry): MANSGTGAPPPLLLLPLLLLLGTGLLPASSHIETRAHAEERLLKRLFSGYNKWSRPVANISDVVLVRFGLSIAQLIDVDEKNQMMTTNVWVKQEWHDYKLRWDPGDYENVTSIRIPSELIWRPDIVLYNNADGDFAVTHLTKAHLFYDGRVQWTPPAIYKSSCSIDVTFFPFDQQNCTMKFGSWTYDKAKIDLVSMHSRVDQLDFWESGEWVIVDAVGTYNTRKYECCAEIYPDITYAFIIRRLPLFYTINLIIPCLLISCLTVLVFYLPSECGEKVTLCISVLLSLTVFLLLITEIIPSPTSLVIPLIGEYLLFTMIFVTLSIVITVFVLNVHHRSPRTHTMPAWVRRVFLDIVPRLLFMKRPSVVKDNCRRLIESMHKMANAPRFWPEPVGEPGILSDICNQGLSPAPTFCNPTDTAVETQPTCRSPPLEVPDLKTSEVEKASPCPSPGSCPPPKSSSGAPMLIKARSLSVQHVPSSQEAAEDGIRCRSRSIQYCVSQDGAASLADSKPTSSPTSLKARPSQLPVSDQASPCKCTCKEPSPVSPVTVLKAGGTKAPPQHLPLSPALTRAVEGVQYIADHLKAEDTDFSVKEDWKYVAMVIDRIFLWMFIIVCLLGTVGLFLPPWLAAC
# Sequence (P12390 whole entry): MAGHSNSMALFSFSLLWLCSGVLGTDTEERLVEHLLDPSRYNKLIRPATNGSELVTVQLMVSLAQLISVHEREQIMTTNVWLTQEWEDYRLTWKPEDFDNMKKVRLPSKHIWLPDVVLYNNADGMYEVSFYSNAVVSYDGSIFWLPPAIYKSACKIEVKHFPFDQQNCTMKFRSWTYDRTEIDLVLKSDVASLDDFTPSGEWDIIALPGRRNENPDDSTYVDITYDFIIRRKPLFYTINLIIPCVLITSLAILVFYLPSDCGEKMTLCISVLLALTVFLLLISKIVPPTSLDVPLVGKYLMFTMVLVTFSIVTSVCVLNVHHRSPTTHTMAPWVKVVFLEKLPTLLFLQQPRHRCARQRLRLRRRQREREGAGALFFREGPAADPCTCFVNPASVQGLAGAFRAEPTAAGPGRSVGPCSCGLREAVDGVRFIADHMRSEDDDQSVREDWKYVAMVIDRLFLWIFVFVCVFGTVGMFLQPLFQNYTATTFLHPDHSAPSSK
# assay.summary: Displacement of [3H]epibatidine from alpha4beta2 nAChR (unknown origin) expressed in HEK cell membranes after 4 hrs by liquid scintillation counting method
The response must be a number in nM with no trailing unit.

Some compounds with known Ki results, for comparison:
Measured Ki of Clc1ccc2c(n1)OC13CCC1NCC23 (racemic) : 0.35

Measured Ki of Clc1ccc2c(n1)O[C@]13CC[C@H]1NC[C@H]23 : 0.27

Further cases:
Measured Ki of Clc1ccc2c(n1)O[C@@]13CC[C@@H]1NC[C@@H]23 [PHANTASMIDINE] : 12
